Target: GlcNAc(b1-6)GalNAc
Test: glycan array binding signal (z-score within array); higher = stronger binding
Details: glycan notation: IUPAC condensed, linker removed
This excerpt belongs to a sample that is enriched for the strongest signals.
outcomeMeasure: glycan array binding signal (z-score)

INSERT INTO measurements (binder, reported) VALUES
  ('HFR-3 (Triticum aestivum) (protein) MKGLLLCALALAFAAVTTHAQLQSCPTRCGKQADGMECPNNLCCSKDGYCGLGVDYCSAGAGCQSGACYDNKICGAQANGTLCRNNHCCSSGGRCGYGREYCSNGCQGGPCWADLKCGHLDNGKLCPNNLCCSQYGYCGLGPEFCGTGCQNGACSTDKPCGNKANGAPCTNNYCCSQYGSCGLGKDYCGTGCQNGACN', -0.591),
  ('GS13455A-bfa-343-25-343 (Bacteroides fragilis) (protein) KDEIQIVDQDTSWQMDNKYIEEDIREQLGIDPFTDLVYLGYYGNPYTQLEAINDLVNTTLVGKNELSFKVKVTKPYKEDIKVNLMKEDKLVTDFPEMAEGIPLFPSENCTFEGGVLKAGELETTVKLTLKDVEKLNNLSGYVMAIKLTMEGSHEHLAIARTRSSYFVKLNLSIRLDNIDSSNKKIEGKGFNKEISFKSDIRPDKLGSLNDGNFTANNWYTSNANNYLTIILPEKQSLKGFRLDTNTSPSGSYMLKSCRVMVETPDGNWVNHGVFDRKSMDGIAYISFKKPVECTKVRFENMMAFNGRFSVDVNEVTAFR', -0.656),
  ('MGL2 (Mus musculus), Q8JZN1 (protein) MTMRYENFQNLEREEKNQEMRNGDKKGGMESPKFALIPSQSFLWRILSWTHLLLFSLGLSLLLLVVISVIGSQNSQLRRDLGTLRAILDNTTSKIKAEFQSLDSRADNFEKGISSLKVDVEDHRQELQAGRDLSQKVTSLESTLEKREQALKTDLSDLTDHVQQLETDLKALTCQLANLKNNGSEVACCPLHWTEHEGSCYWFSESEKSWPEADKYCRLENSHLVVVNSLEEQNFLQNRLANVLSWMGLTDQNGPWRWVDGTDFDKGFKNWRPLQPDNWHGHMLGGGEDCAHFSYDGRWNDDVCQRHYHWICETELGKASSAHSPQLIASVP', 6.85),
  ('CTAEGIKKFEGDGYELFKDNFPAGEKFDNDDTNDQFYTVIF [MUB40 (Lactobacillus reuteri)]', -0.355),
  ('Tachylectin-2 (Tachypleus tridentatus), TAL2_TACTR (protein) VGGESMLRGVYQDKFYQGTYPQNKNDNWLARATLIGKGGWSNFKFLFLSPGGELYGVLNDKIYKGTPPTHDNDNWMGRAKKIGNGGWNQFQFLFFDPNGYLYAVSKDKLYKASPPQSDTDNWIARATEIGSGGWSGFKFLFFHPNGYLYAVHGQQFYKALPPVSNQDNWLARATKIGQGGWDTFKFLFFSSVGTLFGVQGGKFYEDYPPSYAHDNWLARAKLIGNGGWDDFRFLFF', 1.42),
  ('Gal 3 (Homo sapiens), P17931 (protein) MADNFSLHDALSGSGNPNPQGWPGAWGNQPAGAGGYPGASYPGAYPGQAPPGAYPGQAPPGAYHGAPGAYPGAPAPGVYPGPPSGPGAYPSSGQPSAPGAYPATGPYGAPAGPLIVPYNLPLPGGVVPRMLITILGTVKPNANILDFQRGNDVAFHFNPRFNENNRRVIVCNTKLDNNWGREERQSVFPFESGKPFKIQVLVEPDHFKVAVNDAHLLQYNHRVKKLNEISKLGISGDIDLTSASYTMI', -0.391),
  ('PpFlo2 (Pichia pastoris) (protein) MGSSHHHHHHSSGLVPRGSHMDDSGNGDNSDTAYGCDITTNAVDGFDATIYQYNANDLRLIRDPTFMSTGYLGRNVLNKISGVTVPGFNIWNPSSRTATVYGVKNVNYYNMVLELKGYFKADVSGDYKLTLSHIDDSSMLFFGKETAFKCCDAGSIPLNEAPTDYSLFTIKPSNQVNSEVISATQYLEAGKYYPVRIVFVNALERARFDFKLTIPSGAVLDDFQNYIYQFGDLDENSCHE', 0.967),
  ('LEA (Lycopersicon esculentum) (protein) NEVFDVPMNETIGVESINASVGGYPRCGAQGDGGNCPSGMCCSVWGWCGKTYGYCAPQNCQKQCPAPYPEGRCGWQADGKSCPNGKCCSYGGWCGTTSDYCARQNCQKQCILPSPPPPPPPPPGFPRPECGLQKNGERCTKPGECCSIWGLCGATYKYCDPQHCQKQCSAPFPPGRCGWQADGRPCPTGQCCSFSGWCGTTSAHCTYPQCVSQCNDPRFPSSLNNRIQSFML', -0.545),
  ('S100A12 (Homo sapiens), P80511 (protein) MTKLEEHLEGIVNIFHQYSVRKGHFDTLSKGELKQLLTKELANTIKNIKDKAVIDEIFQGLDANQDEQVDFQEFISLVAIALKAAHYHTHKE', -0.903),
  ('MGL1 (Mus musculus), P49300 (protein) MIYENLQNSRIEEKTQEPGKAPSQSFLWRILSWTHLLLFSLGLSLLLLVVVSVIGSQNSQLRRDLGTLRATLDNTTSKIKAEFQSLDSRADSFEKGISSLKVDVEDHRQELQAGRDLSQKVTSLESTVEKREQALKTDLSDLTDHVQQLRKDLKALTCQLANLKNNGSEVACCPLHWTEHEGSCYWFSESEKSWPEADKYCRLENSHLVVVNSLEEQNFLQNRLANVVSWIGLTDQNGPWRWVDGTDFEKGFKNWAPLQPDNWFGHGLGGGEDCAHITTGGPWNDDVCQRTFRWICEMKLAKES', 0.042);
